These entries and their values trace back to patent US20240400659A1.

- EXPERIMENTAL_SYSTEM: T1, Apolipoprotein E4 (human, UniProt P02649 19-317)
- T1 construct: also called ApoE4; hApoE4
- T1 sequence (P02649 19-317 C130R limits assumed): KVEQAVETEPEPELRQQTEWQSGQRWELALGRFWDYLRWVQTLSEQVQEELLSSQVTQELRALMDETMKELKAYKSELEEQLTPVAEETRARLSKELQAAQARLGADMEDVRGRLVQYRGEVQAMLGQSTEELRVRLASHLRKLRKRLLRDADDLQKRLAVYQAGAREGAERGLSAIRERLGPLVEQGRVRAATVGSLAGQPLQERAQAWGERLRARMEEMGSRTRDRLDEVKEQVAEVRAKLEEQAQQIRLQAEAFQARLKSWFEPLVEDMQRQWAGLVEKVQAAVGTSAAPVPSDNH
- PROCEDURE_DETAILS: pH affinity ELISA, coated hApoE4
What Ratio pH 7.4/6.0 (EC50) was measured for each of the following?
Answer in ratio, number only, no unit symbol.

The binder identified as BAP191.01-CPE-HC-M099E (antibody, V domains shown) VH: QIQLVQSGPELKKPGETVKISCKASGYTFTTAGMQWVQKMPGKGFKWIGWINTHSGEPKYAEDFKGRFAFSLETSASTAYLQISNLKNEDTATYFCAREGGYAMDYWGQGTSVTVSS VL: DIKLTQSPSSMYASLGERVTITCKASEDINSYLSWFQQKPGKSPKTLIYRANRLVDGVPSRFSGSGSGQDYSLTISSLEYEDMGIYYCLQYDEFPLTFGAGTKLELT registered its Ratio pH 7.4/6.0 (EC50) at 2350

The binder identified as BAP191.01-CPE-LC-Y091D (antibody, V domains shown) VH: QIQLVQSGPELKKPGETVKISCKASGYTFTTAGMQWVQKMPGKGFKWIGWINTHSGEPKYAEDFKGRFAFSLETSASTAYLQISNLKNEDTATYFCARMGGYAMDYWGQGTSVTVSS VL: DIKLTQSPSSMYASLGERVTITCKASEDINSYLSWFQQKPGKSPKTLIYRANRLVDGVPSRFSGSGSGQDYSLTISSLEYEDMGIYYCLQDDEFPLTFGAGTKLELT registered its Ratio pH 7.4/6.0 (EC50) at 1.79

The binder identified as BAP191.01-CPE-HC-I051D (antibody, V domains shown, also called BAP191.01-CPE-HC-1051D) VH: QIQLVQSGPELKKPGETVKISCKASGYTFTTAGMQWVQKMPGKGFKWIGWDNTHSGEPKYAEDFKGRFAFSLETSASTAYLQISNLKNEDTATYFCARMGGYAMDYWGQGTSVTVSS VL: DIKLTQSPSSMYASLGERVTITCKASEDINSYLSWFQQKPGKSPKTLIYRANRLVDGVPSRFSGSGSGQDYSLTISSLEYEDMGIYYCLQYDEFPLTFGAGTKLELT registered its Ratio pH 7.4/6.0 (EC50) at 3.07
